Tested on: rice (Oryza sativa)
measurement.notes: Test B flooded paddy test, rice
experimental.context: 336 h, read-out: Plant response rating, Rice
Entries annotated with measured plant injury at 250 g/ha
Write down the numeric answer in % and omit the unit.

Previously resolved entries follow.
                                   molecule  measurement_unit  recorded_measurement
0  Cc1cc(C)c(C2=NOC3(CCCC3)C2)cc1NS(=O)(=O)C(F)(F)F                 %                     0
1  Cc1cc(C)c(C2=NOC3COCCC23)cc1NS(=O)(=O)C(F)(F)F (stereo not drawn)                 %                    20

Continue with the next molecule.
Notebook: CCc1cc(-c2cc(NS(=O)(=O)C(F)(F)F)c(C)cc2C)c(=O)n(C)n1 , plant injury at 250 g/ha read as 0

---

System: wheat (Triticum aestivum)
measurement.notes: Test A1 preemergence, wheat
Type: in vivo
experimental.context: 31 g ai/ha, 0 to 100 scale (0 no effect, 100 complete control)
Recorded Plant response rating, Wheat, one value per entry.
# output: bare number, no unit

Recorded Plant response rating, Wheat, per entry:
In [3]: df
Out[3]:
                                   compound                    value_kind  recorded_measurement
0  CCc1cc(C)c(N(COC(=O)C(C)(C)C)S(=O)(=O)C(F)(F)F)cc1C1=NOC2CCCC12 (centres unmarked)  Plant response rating, Wheat                    10
1  Cc1c(NS(=O)(=O)C(F)(F)F)cc(C(=O)N2CCOCC2)c(C)c1C  Plant response rating, Wheat                    30
2  Cc1cc(C)c(N2CC3(CCCCC3)CC2=O)cc1NS(=O)(=O)C(F)(F)F  Plant response rating, Wheat                     0
3  Cc1cc(F)c(C2=NOC3CCCC23)cc1NS(=O)(=O)C(F)(F)F (centres unmarked)  Plant response rating, Wheat                     0

Attention now shifts to the item below.
// recorded Plant response rating, Wheat for CCOC1CC(c2cc(NS(=O)(=O)C(F)(F)F)c(C)cc2C)=NO1 (centres unmarked) : 0

---

Test system: kochia (Bassia scoparia)
measurement.notes: Test A postemergence, kochia
Format: in vivo
experimental.context: Postemergence, 500 g ai/ha; visual injury vs untreated controls after approx. 10 days; 0 to 100 scale (0 no effect, 100 complete control)
Kochia plant response rating values for the compounds below.

In [3]: df
Out[3]:
                            molecule_smiles             target_entity  recorded_measurement
0  Cc1cc(Cl)c(C2=NOC(C)(C)C2)cc1NS(=O)(=O)C(F)(F)F  kochia (Bassia scoparia)                    50
1  CCn1nc(Cl)cc(-c2cc(N(S(C)(=O)=O)S(=O)(=O)C(F)(F)F)c(C)cc2C)c1=O  kochia (Bassia scoparia)                    50

So, Cc1cc(C)c(C(=O)N2CCC(F)(F)C2)cc1NS(=O)(=O)C(F)(F)F ? Its Kochia plant response rating was 50

---

System: kochia (Bassia scoparia)
measurement.notes: Test A preemergence, kochia
Assay type: in vivo
experimental.context: Preemergence, 500 g ai/ha; 0 to 100 scale (0 no effect, 100 complete control)
# reported Plant response rating, Kochia; entries follow
// no unit, no text: just the number

Below, 6 compounds whose answers are already recorded.
>>> print(df.to_string())
                                   compound             target_entity  recorded_measurement
0  O=C(c1ccc(Cl)c(NS(=O)(=O)C(F)(F)F)c1)N1CCOCC1  kochia (Bassia scoparia)                    80
1  CCCn1nccc(-c2cc(NS(=O)(=O)C(F)(F)F)c(C)cc2C)c1=O  kochia (Bassia scoparia)                    80
2  Cc1c(NS(=O)(=O)C(F)(F)F)cc(C(=O)N2CCCCC2)c(C)c1F  kochia (Bassia scoparia)                    90
3  Cc1cc(C)c(C2=NOC(C(C)(C)C)C2)cc1NS(=O)(=O)C(F)(F)F (stereo not shown)  kochia (Bassia scoparia)                    90
4  Cc1cc(C)c(N(S(=O)(=O)C(F)(F)F)S(=O)(=O)C(F)(F)F)cc1C1=NOC(C(C)(C)C)C1 (stereo not shown)  kochia (Bassia scoparia)                    80
5  Cc1cc(C)c(N(S(=O)(=O)C(F)(F)F)S(=O)(=O)C(F)(F)F)cc1C1=NOC2(CCCC2)C1  kochia (Bassia scoparia)                    90

Consider the record given below.
The compound listed as Cc1cc(C)c(N(S(=O)(=O)C(F)(F)F)S(=O)(=O)C(F)(F)F)cc1-c1cc(Cl)nn(C)c1=O shows Plant response rating, Kochia equal to 100

---

System: kochia (Bassia scoparia)
measurement.notes: Test A1 postemergence, kochia
Format: in vivo
experimental.context: Postemergence, 31 g ai/ha; 0 to 100 scale (0 no effect, 100 complete control); 10 days
Reported Plant response rating, Kochia values for a set of compounds
No unit in the answer, please; the number alone is enough.

Example cases with answers are listed next.
In [3]: df
Out[3]:
                                   compound                     value_kind  recorded_measurement
0  Cc1c(NS(=O)(=O)C(F)(F)F)cc(C(=O)N2CCC(Cl)CC2)c(C)c1C  Plant response rating, Kochia                    10
1  Cc1cc(C)c(N(COC(=O)C(C)C)S(=O)(=O)C(F)(F)F)cc1C1=NOC2CCCC12 (stereo not shown)  Plant response rating, Kochia                    20
2  Cc1cc(F)c(C2=NOC3CCCC23)cc1NS(=O)(=O)C(F)(F)F (stereo not shown)  Plant response rating, Kochia                     0
3  Cc1cc(C)c(N(COC(=O)C(C)(C)C)S(=O)(=O)C(F)(F)F)cc1C(=O)N1CCC(C)CC1  Plant response rating, Kochia                    10
4  COc1cc(C)c(C2=NOC3(CCCC3)C2)cc1NS(=O)(=O)C(F)(F)F  Plant response rating, Kochia                     0
5  Cc1cc(Br)c(NS(=O)(=O)C(F)(F)F)cc1C1=NOC2(CCCC2)C1  Plant response rating, Kochia                     0

Field Plant response rating, Kochia (kochia (Bassia scoparia)), entry Cc1c(C(=O)N2CCSCC2)cc(N(COC(=O)C(C)(C)C)S(=O)(=O)C(F)(F)F)c(C)c1C : 10

Entry CCCCOC1CC(c2cc(NS(=O)(=O)C(F)(F)F)c(C)cc2C)=NO1 (stereo not shown) , tested on kochia (Bassia scoparia), has a reported Plant response rating, Kochia of 50

Per the reported kochia (Bassia scoparia) data, Cc1cc(C(F)(F)F)c(C2=NOC3CCCC23)cc1NS(=O)(=O)C(F)(F)F (stereo not shown) has Plant response rating, Kochia of 0

---

Reported values of Plant response rating, Galium for individual entries
System: galium (catchweed bedstraw, Galium aparine)
measurement.notes: Test A postemergence, galium
Type: in vivo
experimental.context: Postemergence, 125 g ai/ha; visual injury approx. 10 days; 0 to 100 scale (0 no effect, 100 complete control)
Reply: number alone, nothing else.

Record excerpt, results attached:
>>> df
                                   molecule                     value_kind  recorded_measurement
0  Cc1cc(Cl)c(NS(=O)(=O)C(F)(F)F)cc1C(=O)N1CCSCC1 [Compound 26]  Plant response rating, Galium                    70
1  COC1CCCN(C(=O)c2cc(N(C(=O)C(C)C)S(=O)(=O)C(F)(F)F)c(C)cc2C)C1 (stereo not drawn) [Compound 91]  Plant response rating, Galium                    70
2  COc1cc(-c2cc(N(S(=O)(=O)C(F)(F)F)S(=O)(=O)C(F)(F)F)c(C)cc2C)c(=O)n(C)n1 [Compound 35]  Plant response rating, Galium                    60
3  CSc1cc(-c2cc(NS(=O)(=O)C(F)(F)F)c(C)cc2C)c(=O)n(C)n1 [Compound 36]  Plant response rating, Galium                    40

Query COC1CCCN(C(=O)c2cc(NS(=O)(=O)C(F)(F)F)c(C)c(F)c2C)C1 (stereo not drawn) [Compound 98] yields Plant response rating, Galium of 90

Looking up Cc1cc(C)c(N(S(=O)(=O)C(F)(F)F)S(=O)(=O)C(F)(F)F)cc1C(=O)N1CCCC(F)C1 (stereo not drawn) [Compound 118] , I found its Plant response rating, Galium recorded as 90

Sample Cc1cc(C(=O)N2CCOC(C)(C)C2)cc(NS(=O)(=O)C(F)(F)F)c1Cl [Compound 2] ; Plant response rating, Galium observed: 90
